# Test system: Saccharomyces cerevisiae
# Measurement notes: protein stability index of tFT-peptide fusion (C-terminal peptide) (PSI (0-1 scale)); higher = more stable (slower turnover)
# Condition label: genetic background: cdc34-1; temperature: 37 C
Exercise: for every item that follows, state its recorded protein stability index.
Form field (numeric): enter value without unit.

Req: Look at this sequence and give its reported protein stability index. RIHRRLIKNKRV
Resp: 0.649

Req: Looking for the measured protein stability index of IFAVLVSGSFFF , can you help?
Resp: 0.425

Req: Consider the sequence shown here: VGDIRSFALWYA What is its recorded protein stability index?
Resp: 0.699

Req: Look up protein stability index for this sequence: VYQAFIFRMSLF
Resp: 0.529

Req: Look at this sequence and give its reported protein stability index. WALWGFVFWDWW
Resp: 0.402

Req: Report protein stability index for VYDVSVGVAVVG please.
Resp: 0.44

Req: Param item = VCNSIPLTPPPA ; retrieve measured protein stability index.
Resp: 0.679

Req: Which protein stability index value belongs to RLIAVAGVVVVA ?
Resp: 0.541

Req: Give its protein stability index value. Item: TVHVIVVCRELA
Resp: 0.47

Req: May I ask what protein stability index has been recorded for CVSFFRCLFLIV ?
Resp: 0.217

Req: Requested read-out: protein stability index. Entry: WVGWVVVLGCVG
Resp: 0.373

Req: Please report the recorded protein stability index for GICLVLVSDIWI .
Resp: 0.579

Req: I would be grateful if you could share the reported protein stability index for ALVGEVLWFQLV .
Resp: 0.684

Req: Tell me the measured protein stability index of VLYWTGTLFVSL , please.
Resp: 0.208

Req: Look at this sequence and give its reported protein stability index. PPRDPGGLFTPF
Resp: 0.732

Req: Look up protein stability index: YILRLMMEGICL
Resp: 0.497

Req: GET /values?readout=protein stability index&item= LLFLLSPFNFAV
Resp: 0.651

Req: State the recorded protein stability index for this entry: GPRRARLPNFLA
Resp: 0.445

Req: For the sequence shown here, SVIVSSFFLWVF , give the reported protein stability index.
Resp: 0.381

* * *

# System: Saccharomyces cerevisiae
# Measurement notes: protein stability index of tFT-peptide fusion (C-terminal peptide) (PSI (0-1 scale)); higher = more stable (slower turnover)
# Condition label: genetic background: doa10 deletion; temperature: 30 C
Answer each item with its documented protein stability index.

Req: Find protein stability index (Saccharomyces cerevisiae) for the entry YFFVCYFSLLVF
Resp: 0.0967

Req: Notebook: pull reported protein stability index for Saccharomyces cerevisiae, entry LCIFFWFSSFFL
Resp: 0.401

Req: // lookup protein stability index | system=Saccharomyces cerevisiae | key= PLSPTNLSRLLS
Resp: 0.199

Req: Please provide the recorded protein stability index for FAVTRVHLACWG , tested on Saccharomyces cerevisiae.
Resp: 0.33

Req: Short answer please: protein stability index, Saccharomyces cerevisiae, entry YLFFVCLHLKAG
Resp: 0.174

Req: Item IDSEVHLWKRSA with Saccharomyces cerevisiae - protein stability index?
Resp: 0.16

Req: Requested read-out protein stability index, target or system Saccharomyces cerevisiae, entry WLWFVGCLAAPL
Resp: 0.523

Req: Lab request: please report protein stability index under test system Saccharomyces cerevisiae for FVRCFWPFVFVF
Resp: 0.139

Req: Any idea what protein stability index came out for FCCFFVHMSFFL on Saccharomyces cerevisiae?
Resp: 0.265

Req: Query the reported protein stability index for Saccharomyces cerevisiae; item: FSCSRNVLVTVV
Resp: 0.178

Req: Given the entry MLSVVSFVSCTC , what protein stability index was observed with Saccharomyces cerevisiae?
Resp: 0.163

Req: // lookup protein stability index | system=Saccharomyces cerevisiae | key= WQILVRLIDFYT
Resp: 0.311

Req: Query protein stability index on Saccharomyces cerevisiae for PPPAPPLSMPAP
Resp: 0.671

Req: State its protein stability index on Saccharomyces cerevisiae: GWWCGIGVAVSV
Resp: 0.292

Req: Form: Entry = LVVYLSCVACIN | System = Saccharomyces cerevisiae | protein stability index = ____
Resp: 0.0223

Req: // lookup protein stability index | system=Saccharomyces cerevisiae | key= PPTLLPPLHPAP
Resp: 0.666

Req: API: value(readout=protein stability index, system=Saccharomyces cerevisiae) for record PTLPASLHSIYP
Resp: 0.687

Req: Form field - read-out: protein stability index; system: Saccharomyces cerevisiae; submitted item: MIVAIQLVDHPP;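 also: PSI is a weighted mean of sequencing reads over stability bins, variants kept only with over 10 reads, mCherry proximal and sfGFP distal, peptide attached via GGGS linker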
Resp: 0.409

Req: Item FCSPFFFFLFRL with Saccharomyces cerevisiae - protein stability index?
Resp: 0.469
